Target: T1, Human BCMA (human, UniProt Q02223 1-54, limits assumed)
T1 construct: Soluble analyte in SPR; construct not described; also called huBCMA; B-cell maturation antigen
T1 sequence (looked up): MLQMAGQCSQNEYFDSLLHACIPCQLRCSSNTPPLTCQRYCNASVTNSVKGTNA
Assay: SPR, IgG immobilised, 25 C
Procedure: All experiments were performed on a Bio-Rad Proteon XPR36 surface Plasmon resonance biosensor (Bio-Rad, Hercules, Calif.). […] The analysis temperature for the immobilization was 25° C. and the running buffer was HBS-T+(10 mM HEPES, 150 mM NaCl, 0.05% Tween-20, pH 7.4). […] The analysis temperature for the BCMA binding analysis was 37° C. or 25° C. in a running buffer of HBS-T+, supplemented with 1 mg/mL BSA. […] Immediately after the 50 nM BCMA injection, dissociation was monitored for 2 hours. […]
This listing pairs binders with measured kon.
Field: numeric (M⁻¹ s⁻¹). Do not append units.

binder	measurement kind	unit spec	result
L1.LGF/L3.KW/H3.AL (antibody, V domains shown, IgG) VH: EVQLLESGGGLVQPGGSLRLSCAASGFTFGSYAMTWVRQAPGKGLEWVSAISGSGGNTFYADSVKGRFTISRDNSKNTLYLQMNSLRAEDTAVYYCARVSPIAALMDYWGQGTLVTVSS VL: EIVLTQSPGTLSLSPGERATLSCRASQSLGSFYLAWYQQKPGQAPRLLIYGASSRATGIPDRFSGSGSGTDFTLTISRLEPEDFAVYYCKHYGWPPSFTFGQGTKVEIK	kon	M⁻¹ s⁻¹	428000
L1.LGF/L3.PY/H3.AQ (antibody, V domains shown, IgG) VH: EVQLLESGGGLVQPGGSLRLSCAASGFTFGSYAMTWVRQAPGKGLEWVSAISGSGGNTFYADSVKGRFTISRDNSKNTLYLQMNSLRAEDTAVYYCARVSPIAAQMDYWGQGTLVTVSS VL: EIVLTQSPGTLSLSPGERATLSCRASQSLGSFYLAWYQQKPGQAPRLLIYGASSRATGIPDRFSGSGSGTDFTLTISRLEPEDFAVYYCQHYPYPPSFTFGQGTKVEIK	kon	M⁻¹ s⁻¹	931000

Please turn your attention to the following entry.
Field request: kon | item: L3.KW/P6E01 (antibody, V domains shown, IgG) VH: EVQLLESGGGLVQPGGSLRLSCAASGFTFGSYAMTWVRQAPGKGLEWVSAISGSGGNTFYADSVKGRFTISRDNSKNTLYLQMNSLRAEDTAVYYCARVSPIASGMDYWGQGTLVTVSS VL: EIVLTQSPGTLSLSPGERATLSCRASQSVSSSYLAWYQQKPGQAPRLLIYGASSRATGIPDRFSGSGSGTDFTLTISRLEPEDFAVYYCKHYGWPPSFTFGQGTKVEIK
740000
